Documented IC50 across a set of molecules
biological target: PHGDH (Homo sapiens (Human), UniProt O43175); test: PHGDH inhibition, coupled assay with PSAT1/PSPH and diaphorase/resazurin readout; conditions: Table E9; mixture with PSAT1, PSPH; diaphorase/resazurin reporter
Sequence (O43175 whole entry): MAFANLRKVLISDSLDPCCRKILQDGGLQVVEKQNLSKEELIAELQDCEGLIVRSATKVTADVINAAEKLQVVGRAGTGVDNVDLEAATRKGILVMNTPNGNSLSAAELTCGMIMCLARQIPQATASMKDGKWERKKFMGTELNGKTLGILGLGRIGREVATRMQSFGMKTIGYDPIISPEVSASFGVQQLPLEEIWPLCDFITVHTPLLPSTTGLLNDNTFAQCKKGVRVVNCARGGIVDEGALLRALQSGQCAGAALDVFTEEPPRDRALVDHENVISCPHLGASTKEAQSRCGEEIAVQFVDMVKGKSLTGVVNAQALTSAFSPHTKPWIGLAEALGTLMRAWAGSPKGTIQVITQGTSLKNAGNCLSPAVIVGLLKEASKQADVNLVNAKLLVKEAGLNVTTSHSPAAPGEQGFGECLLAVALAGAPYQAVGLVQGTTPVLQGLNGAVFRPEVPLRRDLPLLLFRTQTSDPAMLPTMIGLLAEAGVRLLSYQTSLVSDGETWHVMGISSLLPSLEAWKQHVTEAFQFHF

Below: 2 molecules and their reported IC50.
# molecule, subject of test, IC50
data = [
    ("Cc1cc(C)nc(NC(=S)N2CCN(c3ncccc3Cl)CC2)c1 [Compound 79]", "PHGDH (Homo sapiens (Human), UniProt O43175)", "10 to 20 µM"),
    ("Cc1cc(C)nc(NC(=S)N2CCN(c3ccc4nccn4c3)CC2)c1 [Compound 162]", "PHGDH (Homo sapiens (Human), UniProt O43175)", "≥ 20 µM"),
]

Task item: Input Cc1cc(C)nc(NC(=S)N2CCN(c3cc(Cl)c(Cl)cc3Cl)CC2)c1 [Compound 220] , output reported IC50.
Reply: ≥ 20 µM

Task item: Input Cc1ccnc(NC(=S)N2CC3CN(c4ccc(Cl)cc4C(F)(F)F)CC3C2)c1 (stereo not drawn) [Compound 224] , output reported IC50.
Reply: ≥ 20 µM

Task item: Input FC(F)(F)c1cccc(N2CCN(C(=S)Nc3cc[nH]n3)CC2)c1 [Compound 236] , output reported IC50.
Reply: 5 to 10 µM

Task item: Input COc1ccnc(NC(=S)N2CCN(c3ccc4ccccc4n3)CC2)c1 [Compound 186] , output reported IC50.
Reply: 10 to 20 µM

Task item: Input Cc1cc(C)nc(NC(=S)N2CCN(Cc3ccc(C(F)(F)F)cc3)C(C)C2)c1 (stereo not drawn) [Compound 275] , output reported IC50.
Reply: < 5 µM

Task item: Input COc1cc(N2CCN(C(=S)Nc3cc(C)cc(C)n3)CC2)cc(C(F)(F)F)c1 [Compound 136] , output reported IC50.
Reply: 10 to 20 µM

Task item: Input Cc1cc(C)nc(NC(=S)N2CCN(c3ccc(F)c(F)c3F)CC2)c1 [Compound 208] , output reported IC50.
Reply: 10 to 20 µM

====

target: ALDH (Homo sapiens (Human), UniProt P00352)
Sequence (P00352 whole entry): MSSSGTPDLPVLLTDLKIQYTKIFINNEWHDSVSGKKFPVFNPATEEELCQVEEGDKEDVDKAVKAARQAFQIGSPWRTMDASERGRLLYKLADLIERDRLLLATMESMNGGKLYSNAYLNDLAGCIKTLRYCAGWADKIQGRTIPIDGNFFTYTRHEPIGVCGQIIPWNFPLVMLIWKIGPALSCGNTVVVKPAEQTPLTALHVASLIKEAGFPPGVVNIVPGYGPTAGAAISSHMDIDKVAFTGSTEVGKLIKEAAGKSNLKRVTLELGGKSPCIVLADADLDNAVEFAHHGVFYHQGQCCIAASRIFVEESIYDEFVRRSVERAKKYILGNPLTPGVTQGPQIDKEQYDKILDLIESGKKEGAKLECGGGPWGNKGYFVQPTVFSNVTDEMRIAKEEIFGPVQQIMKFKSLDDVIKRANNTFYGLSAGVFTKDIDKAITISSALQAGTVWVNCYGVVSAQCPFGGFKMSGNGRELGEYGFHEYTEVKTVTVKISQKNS
experimental endpoint: IC50

Task item: Input Cc1cc(C)nc(NC(=S)N2CCN(c3ccc(C(F)(F)F)cn3)CC2)c1 , output reported IC50.
Reply: 10 to 50 µM

====

target: PHGDH (Homo sapiens (Human), UniProt O43175); test: PHGDH inhibition, coupled assay with PSAT1/PSPH and diaphorase/resazurin readout; conditions: Table E9; mixture with PSAT1, PSPH; diaphorase/resazurin reporter
experimental endpoint: IC50

Below: 5 molecules and their reported IC50.
# molecule, result
measured = [
    ("Cc1cc(C)nc(NC(=S)N2CCN(c3ccccn3)CC2)c1", "≥ 20 µM"),
    ("Cc1cc(C)nc(NC(=S)N2CCN(C(=O)c3ccc(C(F)(F)F)cc3)CC2)c1", "< 5 µM"),
    ("Cn1c(NC(=S)N2CCN(c3cccc(C(F)(F)F)c3)CC2)nc2ccccc21", "5 to 10 µM"),
    ("Cc1ccnc(NC(=O)N2CCN(c3cccc(C(F)(F)F)c3)CC2)c1", "≥ 20 µM"),
    ("Cc1cc(C)nc(NC(=S)N2CCC(Nc3cccc(C(F)(F)F)c3)CC2)c1", "< 5 µM"),
]

Now let's try a different one.
Task item: Input Cc1cc(C)nc(NC(=S)N2CCN(CC(C)(C)C)CC2)c1 , output reported IC50.
Reply: < 5 µM
